test: in vitro; settings: human, plasma, PPB
readout: fraction unbound at 5 h

{"columns": ["compound", "readout", "observed.result"],
 "data": [
  ["COc1cccc2c1c(NS(=O)(=O)c1ccc(Cl)s1)nn2Cc1cccc(CNC(=O)C(C)(C)O)c1", "fraction unbound at 5 h", 0.0133],
  ["O=C(O)COc1ccc(Cl)cc1CN1CCN(S(=O)(=O)c2ccc(F)cc2)CC1", "fraction unbound at 5 h", 0.0101],
  ["O=C(O)C[C@H](O)C[C@H](O)/C=C/c1c(C2CC2)nc2ccccc2c1-c1ccc(F)cc1", "fraction unbound at 5 h", 0.02],
  ["CC#Cc1cncc(-c2ccc3c(c2)C2(N=C(C)C(N)=N2)[C@]2(CC[C@H](OC)CC2)C3)c1 (stereo not given in full)", "fraction unbound at 5 h", 0.0801],
  ["Cc1nnc(-c2ccc(N3CCC(Oc4cc(F)ccc4Cl)CC3)nn2)o1", "fraction unbound at 5 h", 0.0179]
]}

Ref: ChEMBL document CHEMBL3301361
